target: Arginase-2, mitochondrial (Homo sapiens); test: in vitro enzyme assay to detect the production of urea directly proportional to the activity of Arginase II; assay type: functional; parameters: scale not given: in the data most compounds retested in dose-response had high values; details: 33.3 µM
observable: Percent Effect (%)
Give bare numbers, in %.

molecule	Percent Effect / %
c1cnc(NC[C@@H]2CCC[C@@H]3CN(Cc4cccnc4)C[C@@H]32)nc1	25.4
O=C(Cc1ccc(-n2cccn2)cc1)N1CCN2CCCCC2C1 (stereo unspecified)	3.55
c1ccc(CN2CCO[C@H]3[C@H](OCCN4CCCC4)CC[C@@H]32)nc1	-53.2
Fc1cnc(N2CCO[C@H]3CN(CC4CCC4)C[C@H]32)nc1	-59.3
COCCNC(=O)c1cn(C(C)(C)C)c2ncccc12	6.2

Would you kindly look at the next entry?
// returns reported Percent Effect for input `CN(C)c1nccc(N2CCO[C@H]3CN(Cc4ccsc4)C[C@H]32)n1`
-0.399

* * *

biological target: Aspartate--tRNA(Asp/Asn) ligase (Mycobacterium tuberculosis (strain ATCC 25618 / H37Rv)); assay: Assay for Asp RNA synthetase-1 from Mycobacterium tuberculosis; type: functional; design: scale not given: in the data most compounds retested in dose-response had high values; details: 30 µM
Would you kindly list Percent Effect for each of these molecules?
Give bare numbers, in %.

molecule	unit.string	Percent Effect
Cc1nc(C)n(CC2CCCN2CCCc2ccccc2)n1 (centres undefined)	%	0.747
Cc1csc(C2CCCCN2C(=O)CN(C)Cc2ccccc2)n1 (centres undefined)	%	-3.92
Cc1nc(CN2C[C@@H]3CN(C(=O)c4cnccn4)C[C@@H]3C2)cs1	%	-0.661
CCc1ncncc1C(=O)N1CCN(Cc2ccco2)CC1	%	3.68
CC(C)(C)c1n[nH]c(C2CN(C(=O)CCC3CC3)CCO2)n1 (centres undefined)	%	-3.75

Provide Percent Effect values for the following items, in order.
1. CCc1nsc(NC2CCCn3nc(CC)nc32)n1 (centres undefined)
2. Cc1nnc([C@H]2CC[C@@H]3[C@@H](CCN3Cc3c(C)noc3C)O2)o1

[1.74, 2.12]

Provide Percent Effect values for the following items, in order.
1. Cc1cnc2c(S(=O)(=O)NCC3CCS(=O)(=O)C3)cccc2c1 (centres undefined)
2. COc1ccc(CNCCc2cc(F)cc3c2OCOC3)cc1O

3.04
3.65

* * *

target: Tyrosyl-tRNA synthetase, putative (Trypanosoma cruzi (strain CL Brener)) (UniProt Q4DSP6); assay: Trypanosoma cruzi tyrosyl tRNA synthetase (TcYRS) _High Tyrosine SOP; type: functional; set-up: scale not given: in the data most compounds retested in dose-response had high values; conditions: 30 µM
Sequence (Q4DSP6 as listed by the source): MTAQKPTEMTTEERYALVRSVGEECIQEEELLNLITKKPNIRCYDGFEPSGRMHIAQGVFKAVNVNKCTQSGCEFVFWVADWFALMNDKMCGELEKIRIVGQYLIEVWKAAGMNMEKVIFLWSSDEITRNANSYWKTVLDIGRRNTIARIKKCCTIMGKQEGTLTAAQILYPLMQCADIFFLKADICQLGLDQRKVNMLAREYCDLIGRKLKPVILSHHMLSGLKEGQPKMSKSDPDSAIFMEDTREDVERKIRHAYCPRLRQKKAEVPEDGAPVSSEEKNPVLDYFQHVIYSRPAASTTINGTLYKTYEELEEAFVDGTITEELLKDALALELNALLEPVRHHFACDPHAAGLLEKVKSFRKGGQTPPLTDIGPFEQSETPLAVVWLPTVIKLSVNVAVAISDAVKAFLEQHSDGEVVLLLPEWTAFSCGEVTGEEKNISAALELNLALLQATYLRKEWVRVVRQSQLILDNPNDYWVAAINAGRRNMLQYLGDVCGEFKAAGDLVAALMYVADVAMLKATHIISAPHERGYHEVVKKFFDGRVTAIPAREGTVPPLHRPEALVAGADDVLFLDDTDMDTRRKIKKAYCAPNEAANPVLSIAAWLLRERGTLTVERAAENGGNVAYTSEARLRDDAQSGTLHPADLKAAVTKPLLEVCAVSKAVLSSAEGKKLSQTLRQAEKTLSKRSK
observable: Percent Effect (%)
Answers are plain numbers, in %.

For orientation, consider the following solved cases.
compound	target.under.test	value.observed
CCN1CCC2(COCc3cnc(NCC4CC4)nc32)C1 (stereo unspecified)	Tyrosyl-tRNA synthetase, putative (Trypanosoma cruzi (strain CL Brener)) (UniProt Q4DSP6)	0
O=C1CC[C@@H]2[C@@H](CCN2Cc2ccncc2)N1c1ccccc1	Tyrosyl-tRNA synthetase, putative (Trypanosoma cruzi (strain CL Brener)) (UniProt Q4DSP6)	5.21
c1cncc(CN2CC[C@H]3O[C@@H](COCC4CC4)CC[C@H]32)c1	Tyrosyl-tRNA synthetase, putative (Trypanosoma cruzi (strain CL Brener)) (UniProt Q4DSP6)	4.25

Provide Percent Effect values for the following items, in order.
1. CC[C@H]1N(C)CCC[C@]12CCC(=O)N2Cc1ccncc1
2. O=C(COc1ccccc1)N1C[C@@H](O)[C@H](N2CCCC2)C1
3. c1csc(CN2CC[C@H]3C[C@H](c4ccncn4)O[C@@H]3C2)c1

[7.73, -1.07, 2.12]
